Molecular target: FGFR3 (Homo sapiens (Human))
Sequence (P22607 23-806): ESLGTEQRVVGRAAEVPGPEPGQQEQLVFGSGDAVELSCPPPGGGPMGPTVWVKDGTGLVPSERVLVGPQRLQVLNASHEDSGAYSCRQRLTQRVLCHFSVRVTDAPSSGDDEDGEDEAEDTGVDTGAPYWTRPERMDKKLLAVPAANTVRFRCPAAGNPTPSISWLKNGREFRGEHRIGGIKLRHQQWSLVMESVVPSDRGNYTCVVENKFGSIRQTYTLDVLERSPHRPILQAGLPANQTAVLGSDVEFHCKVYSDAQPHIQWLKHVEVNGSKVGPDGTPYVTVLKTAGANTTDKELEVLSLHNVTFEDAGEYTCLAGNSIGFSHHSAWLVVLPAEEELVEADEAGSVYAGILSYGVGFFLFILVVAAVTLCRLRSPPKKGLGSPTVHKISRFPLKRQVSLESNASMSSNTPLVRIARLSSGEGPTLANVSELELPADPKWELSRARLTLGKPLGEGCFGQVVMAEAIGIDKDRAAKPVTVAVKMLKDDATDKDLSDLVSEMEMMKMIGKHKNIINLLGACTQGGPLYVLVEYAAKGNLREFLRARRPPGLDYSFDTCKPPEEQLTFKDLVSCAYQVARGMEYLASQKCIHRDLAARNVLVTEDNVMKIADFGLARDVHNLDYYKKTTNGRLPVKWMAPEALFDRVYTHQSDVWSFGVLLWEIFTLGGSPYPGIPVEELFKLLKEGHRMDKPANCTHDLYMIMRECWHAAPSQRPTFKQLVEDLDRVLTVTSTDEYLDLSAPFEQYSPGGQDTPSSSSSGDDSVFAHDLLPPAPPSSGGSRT
Test: FGFR3 in vitro kinase inhibitory activity assay (TRF)
Conditions: 3 h, read-out: FGFR3 % I
Structures can show the parent of a compound that is named as a salt.

{"Compound": "CNC(=O)c1ccc(-c2ccn3c(-c4cccc(NC(=O)NCC(F)(F)F)c4)cnc3c2)nc1 [Example 224]", "inhibition at 0.001 µM": "61%"}
{"Compound": "O=C(NCC(F)(F)F)Nc1cccc(-c2cnc3cc(-c4ccc(O)cn4)ccn23)c1 [Example 202]", "inhibition at 0.001 µM": "46%"}
{"Compound": "NCC1CCN(c2ccc(-c3ccn4c(-c5cccc(NC(=O)NCC(F)(F)F)c5)cnc4c3)cn2)CC1 [Compound 271]", "inhibition at 0.001 µM": "59%"}
{"Compound": "O=C(NCC(F)(F)F)Nc1cccc(-c2cnc3cc(-c4cnc(C(F)(F)F)nc4)ccn23)c1 [Example 232]", "inhibition at 0.001 µM": "45%"}
{"Compound": "O=C(NCC(F)(F)F)Nc1cccc(-c2cnc3cc(-c4ccc(N5CCNCC5)nn4)ccn23)c1 [Example 23, trifluoroacetate]", "inhibition at 0.001 µM": "58%"}
{"Compound": "CC(C)(CO)n1cc(-c2ccn3c(-c4cccc(NC(=O)NCC(F)(F)F)c4)cnc3c2)cn1 [Example 10]", "inhibition at 0.001 µM": "50%"}
{"Compound": "CC(C)(C(=O)N1CCC1)n1cc(-c2ccn3c(-c4cccc(NC(=O)NCC(F)(F)F)c4)cnc3c2)cn1 [Example 73]", "inhibition at 0.001 µM": "60%"}

// provenance: patent US8796244B2
